Origin of measurements: paper PMC9895041

substrate: OC[C@@H](O)[C@H](O)[C@@H](O)CO; test: purified protein; settings: 1-10 mM xylitol, 1.5 mM NAD+, 50 mM Tris-HCl pH 8.0, 30 °C
recordedMetric: kcat/Km (M⁻¹ s⁻¹)
Give bare numbers, in M⁻¹ s⁻¹.

The protein identified as SpXDH (Schizosaccharomyces pombe 972h-; C111D) (protein) MAPAEKAFVLRKKMDTAIEDRPGQTLTDDHQVKVAIKATGICGSDVHYWKEGGIGDFILKKPMILGHESAGVVVEVGKGVSSLKPGDPVAVEPGCVCRLCDYCRSGRYNLDPHMEFAATPPYDGTLRTYYITTEDFCTKLPKQISVEEGALFEPMSVAVHAMTRGNLKCGSRVLVMGCGTVGLLMMAVAKAYGAIDIVAVDASPSRVEFAQKYVGAKPFTPIAAKENESLPDYAQRYKQAIIEKYGEFDFAVDATGVGICIHTAVLALKRGGTFVQAGNGKPVIDFPINHIINYEINVLGSFRYAHGCYKQSLFLVSNGLVDVKPLITHRFAFKDALKAYETVASGEEGVLKVIIGGPDA registered its kcat/Km at 368
